# procedure text: Radiation stability assessed as 5-fluorodeoxyuridine formation at 100 uM after exposing to 6.0 Gy/min X-ray irradiation aqueous solution containing 2-methyl-2-propanol under hypoxic conditions by HPLC
# Type: physicochemical
# reported conditions: buffer
measured metric: Drug metabolism (nmol/J)

A = O=C(Cn1c(=O)c(F)cn([C@H]2C[C@H](O)[C@@H](CO)O2)c1=O)Cn1c(=O)c(F)cn([C@H]2C[C@H](O)[C@@H](CO)O2)c1=O
B = CC(=O)Cn1c(=O)c(F)cn([C@H]2C[C@H](O)[C@@H](CO)O2)c1=O
Which value of Drug metabolism is smaller, the one for A or the one for B ? Could you answer with the label of the item you picked?
B
(B: 50.9 nmol/J, A: 125.9 nmol/J)

* * *

# procedure text: Radiation stability assessed as compound decomposition at 100 uM after exposing to 6.0 Gy/min X-ray irradiation aqueous solution containing 2-methyl-2-propanol under hypoxic conditions by HPLC
# Format: physicochemical
# reported conditions: buffer
measured metric: Drug degradation (nmol/J)

compound	Drug degradation [nmol/J]
CC(C(=O)C(C)n1c(=O)c(F)cn([C@H]2C[C@H](O)[C@@H](CO)O2)c1=O)n1c(=O)c(F)cn([C@H]2C[C@H](O)[C@@H](CO)O2)c1=O (some centres undefined)	291
CC(=O)Cn1c(=O)c(F)cn([C@H]2C[C@H](O)[C@@H](CO)O2)c1=O	312.5

a = O=C(Cn1c(=O)c(F)cn([C@H]2C[C@H](O)[C@@H](CO)O2)c1=O)Cn1c(=O)c(F)cn([C@H]2C[C@H](O)[C@@H](CO)O2)c1=O
b = O=c1c(F)cn([C@H]2C[C@H](O)[C@@H](CO)O2)c(=O)n1CCCn1c(=O)c(F)cn([C@H]2C[C@H](O)[C@@H](CO)O2)c1=O
Which value of Drug degradation is smaller, the one for a or the one for b ? Could you answer with the label of the item you picked?
b
(b: 148.8 nmol/J, a: 319.1 nmol/J)
